Biological target: Bcl-2 protein (histag-Bcl-2, UniProtKB P10415) (Homo sapiens, UniProt P10415)
Sequence (P10415 whole entry): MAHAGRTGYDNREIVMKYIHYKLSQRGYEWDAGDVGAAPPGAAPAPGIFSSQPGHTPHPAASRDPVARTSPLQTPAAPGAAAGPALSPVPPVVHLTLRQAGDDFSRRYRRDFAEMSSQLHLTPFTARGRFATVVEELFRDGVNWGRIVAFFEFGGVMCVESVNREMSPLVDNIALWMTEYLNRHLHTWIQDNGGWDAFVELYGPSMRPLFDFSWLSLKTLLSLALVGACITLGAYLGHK
Assay: Inhibition of Bcl-2 by the fluorescence polarisation technique
Format: binding
Conditions: fluorescence polarisation, 2 hours incubation; read-out: IC50 (μM) Bcl-2 FP
Measured metric: IC50 (µM)

compound=Cc1c2cc(n1C)-c1cc(Cl)ccc1C(=O)N1CCc3c(cccc3OCCc3c(cc(C#N)n3C)N(c3ccc(O)cc3)C2=O)C1 measured_metric=IC50 units_of_measure=µM observed_value=0.0055
compound=Cc1c2cc(n1C)-c1cc(F)ccc1C(=O)N1CCc3c(cccc3OCCOCCOc3ncc(cn3)N(c3ccc(O)cc3)C2=O)C1 measured_metric=IC50 units_of_measure=µM observed_value=0.0102
compound=Cc1c2cc(n1C)-c1cc(Cl)ccc1C(=O)N1CCc3c(cccc3OCCN(C)CCOc3ncc(cn3)N(c3ccc(O)cc3)C2=O)C1 measured_metric=IC50 units_of_measure=µM observed_value=0.00497
compound=Cc1c2cc(n1C)-c1cc(Cl)ccc1C(=O)N1CCc3c(cccc3OCCCCCCOc3ncc(cn3)N(c3ccc(O)cc3)C2=O)C1 measured_metric=IC50 units_of_measure=µM observed_value=0.0768

1 = Cc1c(N2C(=O)c3cc(n(C)c3C)-c3cc(Cl)ccc3C(=O)N3CCC(CCOc4cc(O)ccc42)CC3)cc(C#N)n1C
2 = Cc1c2cc(n1C)-c1cc(Cl)ccc1C(=O)N1Cc3cccc(c3CC1C)OCCCc1c(cc(C#N)n1C)N(c1ccc(O)cc1)C2=O (single isomer, unassigned) [Example 26]
Lowest IC50? choose 1 or 2 Please reply using the label of the selected record.
2
